system: TO-3-N3 (biotin conjugate); assay: pull-down binding Z-score (relative to library population); higher = stronger binding; settings: RNA library: Library-2
reported.endpoint: pull-down binding Z-score
Answer with a number only.

# sequence, tested.on, readout.number
rows = [
    ("AGGAGUUCACU [hsa-mir-1183]", "TO-3-N3 (biotin conjugate)", -0.276),
    ("GCUGUUUAAUAGGGGCUGAACAUGUCAACAACUCAUAUGAGUGUGACAUACCCAUUGGUGCAGGUAUAUGCGCUAGUUAUCAGACUCAGACUAAUUCUCCUCGGC", "TO-3-N3 (biotin conjugate)", -0.351),
    ("UCCUUUUCUCUACCUUGUAGAGAAGCA [hsa-mir-3609]", "TO-3-N3 (biotin conjugate)", 0.0918),
]

Prompt line: What pull-down binding Z-score value was documented for this sequence, UUUGGCUGCCAAAAGAAAUGGCCAAA [hsa-mir-548at] ?
Response line: -0.656

Prompt line: Query: pull-down binding Z-score; subject: `CUGUUGGUACCAAUUUACCUUUACAGCUAGGUUUUUCUACAGGUGUUAACCUAGUUGCUGUACCUACAG`
Response line: -0.959

Prompt line: // pull-down binding Z-score lookup, key: UGCCAUUUGUCAUGAUGGAAAAGCACACUUUCCUCGUGAAGGUGUCUUUGUUUCAAAUGGCA [SHAPE_invivo_SARS-CoV-2_Motif_465]
Response line: -0.108

Prompt line: If you can, please state the reported pull-down binding Z-score value of CAAGGACCUGCCUAAAGAAAUCACUGUUGCUACAUCACGAACGCUUUCUUAUUACAAAUUGGGAGCUUCGCAGCGUGUAGCAGGUGACUCAGGUUUUG [DMSMaPseq_invitro_SARS-CoV-2_Motif_486] .
Response line: -0.688

Prompt line: Could you tell me which pull-down binding Z-score is on file for GGCAGGAGGCAGUGAAGUAACUUGC [hsa-mir-3934] ?
Response line: 1

Prompt line: Find the recorded pull-down binding Z-score belonging to GGGCCGUGCACCCGUGGGCCCC [hsa-mir-1915] and report it.
Response line: -0.204

Prompt line: Please report the recorded pull-down binding Z-score for `CUAGGUUUUUCUAUGUACUUGG` .
Response line: 1.15

----------
tested on: TO-N3 (biotin conjugate); assay: pull-down binding Z-score (relative to library population); higher = stronger binding; conditions: RNA library: Library-2
# pull-down binding Z-score binned as lowest = under -0.5, middle = from -0.5 up to 0.1, highest = 0.1 and over

Known results for sequences:
# sequence, assigned.class
records = [
    ("GUGUGUGGCGUGGGUGCUGCGGGGCCGUCAGGGUGCCUGCGGGACGCUCAC [hsa-mir-6765]", "highest"),
    ("GAAAUUUGACACCUUCAAUGGGGAAUGUCCAAAUUUU [SHAPE_invitro_SARS-CoV-2_Motif_22]", "lowest"),
    ("GGUUUCGGGCUGCC [hsa-mir-661]", "highest"),
    ("CAGUCCUGAGAUGCAGGGACUG [hsa-mir-4799]", "lowest"),
    ("AUGCACCCAUAUUUUAAUAUCAAACUAUGACAAAUU [hsa-mir-3974]", "middle"),
]

Prompt line: Place this sequence in its band: GUCUGUUUUCUUCAUGGUUUUCUGAC [hsa-mir-6759]
Response line: lowest

Prompt line: Class for `UGUCACAUCAAUCUGACA` ?
Response line: middle

Prompt line: Please let me know in which category the item `CAUGUGUUGGUAGCGAUAAUGUUACUGACUUUAAUG` belongs.
Response line: lowest

Prompt line: Hello team, could you let me know which band the following sequence falls into: CUCUGAUGUAAUUAGGU [hsa-mir-563]
Response line: lowest

Prompt line: # classify by pull-down binding Z-score band: CAGAGUCGUAUUUGUCUUAUGGGCACAUGGCUUUG [SHAPE_invivo_SARS-CoV-2_Motif_350]
Response line: highest
